Source of measurements: patent US11478469B2

A collection of molecules and their measured IC50
- Tested on: MV-4-11 (acute myeloid leukemia (AML))
- protocol-summary: CellTiter-Glo (CTG) cell proliferation assay, MV-4-11
- Type: cell-based
- conditions: Homo sapiens, MV4-11; MV-4-11, single agent alone, 24 hours; read-out: IC50 for inhibition of proliferation
endpoint-label: IC50

smiles-structure	endpoint-label	value-observed
CCN1[C@@H](C(=O)NC23CCC(C(=O)O)(CC2)CC3)[C@H](c2cccc(Cl)c2F)[C@]2(C(=O)Nc3cc(Cl)ccc32)C12CCCCC2	IC50	1960 nM
O=C(NS(=O)(=O)c1ccc(NC[C@H]2COCCO2)c([N+](=O)[O-])c1)c1ccc(N2CCN(CC3=C(c4ccc(Cl)cc4)CC4(CCC4)CC3)CC2)cc1Oc1cnc2[nH]ccc2c1	IC50	84.7 nM
